Ref: patent US20210347794A1

- test_summary: In vivo pharmacokinetic study in dogs, oral dose of ARI-158
- Set-up: species or system male beagle dogs
- measurement_setup: male, beagle, dog, plasma, po, 10 mg/kg, dogs; 10 mg/kg oral dose of ARI-158; time 0.083 h; Dog 11
assay_endpoint: concentration at 0.083 h (ng/mL)
Write the number in ng/mL without appending the unit.

# input Could you share which concentration at 0.083 h value was measured for `CCC(=O)c1csc(C(=O)c2cn(P(=O)([O-])[O-])c3cc(F)ccc23)n1.[Na+].[Na+]` ?
# output 149

----------
- test_summary: In vivo pharmacokinetic study in dogs, oral dose of ARI-158
- Design: species or system male beagle dogs
- measurement_setup: male, beagle, dog, plasma, po, 10 mg/kg, dogs; 10 mg/kg oral dose of ARI-158; Dog 10
assay_endpoint: Cmax (ng/mL)
Write the number in ng/mL without appending the unit.

# input Could you share which Cmax value was measured for CCC(=O)c1csc(C(=O)c2cn(P(=O)([O-])[O-])c3cc(F)ccc23)n1.[Na+].[Na+] [ARI-158] ?
# output 786

----------
- test_summary: In vivo pharmacokinetic study in dogs, oral dose of ARI-158
- Parameters: species or system male beagle dogs
- measurement_setup: male, beagle, dog, plasma, po, 10 mg/kg, dogs; 10 mg/kg oral dose of ARI-158; time 8 h; Dog 12
assay_endpoint: concentration at 8 h (ng/mL)
Write the number in ng/mL without appending the unit.

# input Could you share which concentration at 8 h value was measured for `CCC(=O)c1csc(C(=O)c2cn(P(=O)([O-])[O-])c3cc(F)ccc23)n1.[Na+].[Na+]` ?
# output 4.62

----------
- test_summary: In vivo pharmacokinetic study in dogs, oral dose of ARI-158
- Parameters: species or system male beagle dogs
- measurement_setup: male, beagle, dog, plasma, po, 10 mg/kg, dogs; 10 mg/kg oral dose of ARI-158; time 1 h; Mean
assay_endpoint: concentration at 1 h (ng/mL)
Write the number in ng/mL without appending the unit.

# input Could you share which concentration at 1 h value was measured for `CCC(=O)c1csc(C(=O)c2cn(P(=O)([O-])[O-])c3cc(F)ccc23)n1.[Na+].[Na+]` ?
# output 421
